- Tested on: Rattus norvegicus
- procedureDetails: Toxicity in po dosed rat assessed as decrease in erythropoiesis for 4 days
- Assay type: organism-based, Erythrocyte
- measurementContext: in vivo, 96 h

>  <smilesData>
CN1C[C@@H]2CN(C(=N)c3nc4cc(F)c(F)cc4[nH]3)C[C@@H]2C1

>  <Activity>
Toxic

$$$$
>  <smilesData>
CNC1CN(c2cc(NCCC(C)(C)C)nc(N)n2)C1

>  <Activity>
Non-toxic

$$$$
>  <smilesData>
CN1C[C@@H]2CN(C(=O)c3nc4cc(F)c(F)cc4[nH]3)C[C@@H]2C1

>  <Activity>
Toxic

$$$$
>  <smilesData>
CNC1CN(c2cc(NCC(C)(C)C)nc(N)n2)C1

>  <Activity>
Non-toxic

$$$$

These measurements were taken from ChEMBL document CHEMBL1914379.
